- System: KM12 colon
- Experimental Details: NCI tumour cell line growth inhibition, 48 h
Property: TGI

O=C(O)CCC(NC(=O)/C(=C/c1ccccc1)NC(=O)c1ccccc1)C(=O)O (stereo unspecified) ... > 100 µM
CCOC(=O)C1=C(C)N(c2ccc(Cl)cc2)C2(O)C=CC(=O)C3C(=O)N(c4ccccc4)C(=O)C132 (stereo unspecified) ... 3.52 µM
O=[P+](O)c1cc2c3ccccc3ccc2c2ccccc12 ... > 100 µM

Exam item: Quick one: TGI for "C(=N\Nc1nnc(-c2nnc(N/N=C/c3ccccc3)o2)o1)/c1ccccc1" ?
Marked response: > 10 µM

Exam item: Which TGI value is on record for "CCN(CC)C(=O)c1ccc(C)c(N=NN(C)C)c1" ?
Marked response: > 100 µM

Exam item: Tell me the measured TGI of N#CC(N)(C(=O)C(=O)NCCCNC(=O)C(=O)C(N)(C#N)c1ccc(Cl)cc1)c1ccc(Cl)cc1 (stereo unspecified) , please.
Marked response: > 100 µM

Exam item: Requested field: TGI. Item: CCOC(=O)CCC(NC(=O)c1ccc(Nc2nc3cc(N)cc(N)c3nc2-c2ccccc2)cc1)C(=O)OCC (stereo unspecified)
Marked response: > 100 µM

Exam item: Recorded TGI of COc1ccc(C(OCC2OC(n3ccc(Oc4c(F)c(F)c(F)c(F)c4F)nc3=O)CC2OP(OCCC#N)N(C(C)C)C(C)C)(c2ccccc2)c2ccc(OC)cc2)cc1 (stereo unspecified) , please.
Marked response: > 100 µM

Exam item: Record request: TGI value, item "O=[N+]([O-])C1(CO)COC2(OC1)c1ccccc1-c1ccccc12"
Marked response: > 100 µM

Exam item: Quick one: TGI of C[C@@H]1CC(=O)[C@@]2(C)[C@](O)(CCC3O[C@]32C)[C@@]12CC(c1ccoc1)OC2=O (stereo partly specified) ?
Marked response: > 100 µM

Exam item: Fill in: TGI of "O=C1c2ccccc2-c2c1c1ccccc1c(=O)n2CCCNCCO" is ___
Marked response: 4 µM

Exam item: Can you share its TGI? I mean this molecule: "CCOc1c(Cc2ccccc2)c(=O)n2c3ccccc3n3c(=O)n(C)c(=O)c1c23"
Marked response: > 100 µM

Exam item: I would be grateful if you could share the reported TGI for "CCOC(=O)c1sc2[n+](c1C)C(=O)/C(=C/c1ccccc1Cl)S2" .
Marked response: 18.2 µM

Exam item: Suppose we examine the molecule "NC(=O)COc1ccc(Br)cc1Br" ; what TGI value has been reported?
Marked response: > 100 µM

Exam item: I'd like to know its TGI. The molecule in question is "O=C(O)c1ccccc1/C=C1/Nc2ccccc2C1=O"
Marked response: > 100 µM

Exam item: Item "CN(C)/C=C/C(=O)c1cccc(C(=O)/C=C/N(C)C)n1" has what recorded TGI?
Marked response: > 100 µM
